Exercise: for every item that follows, state its recorded pKd.
# assayed.system: T1, human VEGF165 (human, UniProt P15692 207-395)
# T1 construct: Recombinant (R&D Systems 293-VE; sf21- or HEK 293-expressed depending on the assay); Biotinylated in the DELFIA assay; also called hVEGF165; rHu-VEGF165
# T1 sequence (P15692 other isoform, or with tags, fused parts or gaps limits assumed): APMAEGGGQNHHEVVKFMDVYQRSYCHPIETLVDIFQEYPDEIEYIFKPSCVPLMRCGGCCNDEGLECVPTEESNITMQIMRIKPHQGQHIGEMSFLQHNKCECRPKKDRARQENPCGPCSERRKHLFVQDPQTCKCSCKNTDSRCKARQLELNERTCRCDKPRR
# assay.protocol: Biacore 2000, hVEGF165 amine-coupled on C1 chip, antibody injected, 1:1 fit
// scale note: pKd = -log10(conc_M); give the bare number

Notebook: XPA.10.064.03 IgG2 (antibody, V domains shown, IgG2) VH: EVQLVQSGAEVRKPGASVKVSCKASGYSFTGHYIHWVRQAPGQGLEWMGWINPYSGGTNFPREFQGRVTMTRDTSVNTVYMELTRLTSDDTSVYYCARDQMVHGGLDYWGQGTLVTVSS VL: SYVLTQPPSASGTPGQRVTISCSGSSSNIGINYVYWYQQLPGTAPKLLIYRNDQRPSGVPDRFSGSKSGTSASLAISGLRSEDEADYYCATWDDSLSGVVFGGGTKVTVL , pKd read as 10.04

Notebook: XPA.10.064.07 IgG2 (antibody, V domains shown, IgG2) VH: EVQLVQSGAEVRKPGASVKVSCKASGYSFTGHYIHWVRQAPGQGLEWMGWINPYSGGTNFPREFQGRVTMTRDTSVNTVYMELTRLTSDDTSVYYCARDEMHVGGLDYWGQGTLVTVSS VL: SYVLTQPPSASGTPGQRVTISCSGSSSNIGINYVYWYQQLPGTAPKLLIYRNDQRPSGVPDRFSGSKSGTSASLAISGLRSEDEADYYCATWDDSLSGVVFGGGTKVTVL , pKd read as 10.46

Notebook: XPA.10.064.06 IgG2 (antibody, V domains shown, IgG2) VH: EVQLVQSGAEVRKPGASVKVSCKASGYSFTGHYIHWVRQAPGQGLEWMGWINPYSGGTNFPREFQGRVTMTRDTSVNTVYMELTRLTSDDTSVYYCARDEMTRGGLDYWGQGTLVTVSS VL: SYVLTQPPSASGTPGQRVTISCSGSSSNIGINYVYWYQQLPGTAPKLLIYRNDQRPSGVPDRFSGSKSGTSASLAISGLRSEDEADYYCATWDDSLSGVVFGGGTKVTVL , pKd read as 9.92

Notebook: XPA.10.064.10 IgG2 (antibody, V domains shown, IgG2) VH: EVQLVQSGAEVRKPGASVKVSCKASGYSFTGHYIHWVRQAPGQGLEWMGWINPYSGGTNFPREFQGRVTMTRDTSVNTVYMELTRLTSDDTSVYYCARDEMVWGGLDYWGQGTLVTVSS VL: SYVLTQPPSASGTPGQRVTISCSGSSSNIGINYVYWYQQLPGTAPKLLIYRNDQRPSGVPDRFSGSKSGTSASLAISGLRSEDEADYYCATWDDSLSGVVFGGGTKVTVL , pKd read as 10.25

Notebook: XPA.10.064.04 IgG2 (antibody, V domains shown, IgG2) VH: EVQLVQSGAEVRKPGASVKVSCKASGYSFTGHYIHWVRQAPGQGLEWMGWINPYSGGTNFPREFQGRVTMTRDTSVNTVYMELTRLTSDDTSVYYCARDEMQNGGLDYWGQGTLVTVSS VL: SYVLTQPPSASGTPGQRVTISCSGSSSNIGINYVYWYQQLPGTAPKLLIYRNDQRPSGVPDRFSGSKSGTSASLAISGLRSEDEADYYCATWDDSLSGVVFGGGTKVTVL , pKd read as 9.71

Notebook: XPA.10.064 IgG2 (antibody, V domains shown, Converted to IgG with gamma-2 heavy chain constant region; Expressed in 293E cells; also called parental XPA.10.064; VPA.10.064) VH: EVQLVQSGAEVRKPGASVKVSCKASGYSFTGHYIHWVRQAPGQGLEWMGWINPYSGGTNFPREFQGRVTMTRDTSVNTVYMELTRLTSDDTSVYYCARDHRIVGGLDYWGQGTLVTVSS VL: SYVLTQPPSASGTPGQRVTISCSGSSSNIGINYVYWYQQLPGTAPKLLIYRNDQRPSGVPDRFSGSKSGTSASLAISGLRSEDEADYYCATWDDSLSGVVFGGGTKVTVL , pKd read as 8.77

Recorded values, source patent US20110097340A1.
